- target-entity: T1, BAM1 extracellular domain (BARELY ANY MERISTEM1 receptor kinase, residues 20 to 637) (Arabidopsis, UniProt O49545 20-637, biotin (by biotin ligase BirA))
- T1 construct: synthetic gene, codon-optimised for Trichoplusia ni; Expressed behind the Drosophila BiP secretion signal peptide in a modified pFastBac vector; the StrepII and 10x His tags were removed with TEV protease, the Avi-tag is not cleavable and was used to capture the protein on streptavidin; also called BAM1 ectodomain; biotinylated BAM1; source: Trichoplusia ni (strain Tnao38) cells, secreted, …
- T1 sequence (looked up): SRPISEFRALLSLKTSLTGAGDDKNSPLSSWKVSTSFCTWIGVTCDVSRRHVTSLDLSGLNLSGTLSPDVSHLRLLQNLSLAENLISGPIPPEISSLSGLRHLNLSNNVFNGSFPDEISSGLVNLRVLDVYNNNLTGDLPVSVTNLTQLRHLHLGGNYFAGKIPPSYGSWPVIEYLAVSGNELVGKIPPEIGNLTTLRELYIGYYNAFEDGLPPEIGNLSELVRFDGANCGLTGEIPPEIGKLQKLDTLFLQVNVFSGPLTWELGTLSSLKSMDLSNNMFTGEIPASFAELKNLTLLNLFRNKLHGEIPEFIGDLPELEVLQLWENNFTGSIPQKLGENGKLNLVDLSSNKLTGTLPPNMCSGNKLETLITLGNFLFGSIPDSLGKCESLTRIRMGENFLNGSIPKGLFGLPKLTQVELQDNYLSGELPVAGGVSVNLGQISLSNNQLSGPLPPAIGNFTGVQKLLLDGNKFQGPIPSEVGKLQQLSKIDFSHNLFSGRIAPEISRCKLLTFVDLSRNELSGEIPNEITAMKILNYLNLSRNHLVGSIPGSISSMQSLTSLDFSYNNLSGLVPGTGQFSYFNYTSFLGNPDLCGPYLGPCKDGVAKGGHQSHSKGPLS
- assay-details: grating-coupled interferometry (GCI); biotinylated BAM1 captured on streptavidin on a 4PCP WAVE chip (Creoptix WAVE); peptides as analyte, 1:2 dilution series from 10 µM; 25 °C; 20 mM citrate pH 5.0, 250 mM NaCl, 0.01% Tween 20; one-to-one binding model with mass transport
- test-parameters: both partners purified
No end group written: not given here.
readout-type: Kd (nM)
Report the value in nM with no unit label.

- RLVPSGPNPLHH (peptide, UniProt Q6NMF0 96-107, looked up, ends and bridges not checked, CLE13p, the active dodecapeptide released from the CLE13 propeptide, Arabidopsis; source: synthetic peptide (>90% purity, Biomatik)) [CLE13 dodecapeptide (CLE13p)]: 10

Any idea what its Kd is? The binder is RLVHTGPNPLHN (peptide, UniProt Q8S8M2 92-103, looked up, ends and bridges not checked, CLE16p, the active dodecapeptide released from the CLE16 propeptide, Arabidopsis; source: synthetic peptide (>90% purity, Biomatik)) [CLE16 dodecapeptide (CLE16p)] 6.9
